- assay.text: Binding affinity for nAChR with [3H]nicotine in rat brain
- Type: tissue-based
measurement.name: pKi
// pKi here means minus log10 of the molar concentration (mol/L)

A selection of reference data follows.
* [N-]=[N+]=Nc1cc(CN2CCNC2=N[N+](=O)[O-])cnc1Cl | 7.36
* C/N=C(\NCc1ccc(Cl)nc1)N[N+](=O)[O-] | 5.46
* C/N=C(\NCc1cnc(Cl)c(N=[N+]=[N-])c1)N[N+](=O)[O-] | 7.36

Now for a further compound.
Lookup: Which pKi value belongs to O=[N+]([O-])NC1=NCCN1Cc1ccc(Cl)nc1 ?
Found: 6.54

* * *

- test.target: Nicotinic acetylcholine receptor
- assay.text: Binding affinity for nAChR with [3H]imidacloprid in Drosophila
- Type: protein-complex assay, Drosophila melanogaster
measurement.name: pKi
// pKi here means minus log10 of the molar concentration (mol/L)

A selection of reference data follows.
• C/N=C(\NCc1ccc(Cl)nc1)N[N+](=O)[O-] = 8.00
• C/N=C(\NCc1cnc(Cl)c(N=[N+]=[N-])c1)N[N+](=O)[O-] = 7.89

Lookup: Which pKi value belongs to O=[N+]([O-])NC1=NCCN1Cc1ccc(Cl)nc1 [IMIDACLOPRID] ?
Found: 8.68

Lookup: Which pKi value belongs to [N-]=[N+]=Nc1cc(CN2CCNC2=N[N+](=O)[O-])cnc1Cl [5-AZIDOIMIDACLOPRID] ?
Found: 7.82

* * *

- test.target: Nicotinic acetylcholine receptor
- assay.text: Binding affinity for nAChR with [3H]imidacloprid in Myzus persicae
- Format: protein-complex assay
The entries below are paired with their reported pKi.
// pKi here means minus log10 of the molar concentration (mol/L)

- [N-]=[N+]=Nc1cc(CN2CCNC2=N[N+](=O)[O-])cnc1Cl: 9.00

Lookup: Report pKi for C/N=C(\NCc1cnc(Cl)c(N=[N+]=[N-])c1)N[N+](=O)[O-] tested on Nicotinic acetylcholine receptor.
Found: 8.35

Lookup: Report pKi for O=[N+]([O-])NC1=NCCN1Cc1ccc(Cl)nc1 tested on Nicotinic acetylcholine receptor.
Found: 8.72

Lookup: Report pKi for C/N=C(\NCc1ccc(Cl)nc1)N[N+](=O)[O-] tested on Nicotinic acetylcholine receptor.
Found: 7.92
